# target.of.assay: Jun bZIP K268A;Fos bZIP R158A (human;human, UniProt P05412;P01100 252-315;137-200, K268A|R158A)
# Sequence (P05412 252-315 K268A, chain 1 of 2): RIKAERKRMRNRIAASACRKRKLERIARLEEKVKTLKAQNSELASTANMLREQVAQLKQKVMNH
# Sequence (P01100 137-200 R158A, chain 2 of 2): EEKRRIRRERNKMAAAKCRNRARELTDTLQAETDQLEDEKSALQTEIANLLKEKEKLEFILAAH
# assay.explanation: ITC
observable: pKd
Note: pKd values are expressed as the negative base-10 logarithm of concentration in M.

Entry TRE duplex 15-mer (dsDNA) DNA 1: CGCGTGACTCACCCC DNA 2: GGGGTGAGTCACGCG has what pKd? 6.37
